B1: tRNA (parent)
chain: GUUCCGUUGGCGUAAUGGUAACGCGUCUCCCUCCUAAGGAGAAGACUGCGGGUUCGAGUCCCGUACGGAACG

variants of: B1; assay: yeast fitness relative to wild type (ratio to wild type); higher = fitter; tRNA-Arg(CCU), competitive growth, 37 C, YPD
This sample holds only a part of the variants without activity.
# yeast fitness per record follows
Quick one: just the number, no unit, thanks!

{"Variant Code": "A43U C55A", "yeast fitness": 0.613}
{"Variant Code": "C11A U16C", "yeast fitness": 0.644}
{"Variant Code": "U28A C60G", "yeast fitness": 0.572}
{"Variant Code": "G56C C61A G63U", "yeast fitness": 0.539}
{"Variant Code": "A40U A70U", "yeast fitness": 0.99}
{"Variant Code": "C11G A21U C24U U64A A65G G67U", "yeast fitness": 0.573}
{"Variant Code": "A14U A45C A69U", "yeast fitness": 0.592}
{"Variant Code": "C11G C24G G51C", "yeast fitness": 0.611}

We now examine a further variant.
Req: Identify measured yeast fitness associated with U47C A69C
Resp: 1.07

# credit: the RNAGym collection of RNA variant scans (doi:10.1126/science.aae0568)
